# assayExplanation: soluble fraction after stress (log2 fold change); higher = more stays soluble; pooled small domains, quantitative proteomics;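 also: 20 min heating vs room temperature control held 20 min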
# experimentalParameters: stress: 75 degC
soluble fraction (log2) by entry:
Just the number, please, no unit after it.

Observe how each entry below is paired with its result.
HMFSPTKLKEKRESQGLSQSQLASSLGISRASYFNWESGKTKPNQNNLSKLSEILNVDPRYF ... 0.489
HMNALREVNTSILNVRSGAGTNYSKIGSLTQATRVSVISESNGWSKINYNGKVGYVSSQYLS ... -1.53
HMKRIFEKKVVTESLNGLRLDKAAATLFADFSRNELGQWIKDEALLVNGKAKKVKEKVSEGDVLALDVELI ... 0.203

Answer with the recorded soluble fraction (log2) of HMFSIDRNIRRLRKEAGLTQEELAQKLFVTRQTISLWELGKVHPDLETLQKLAEQFQVDLLQVLYGPE only. -2.33

====

soluble fraction (log2) by entry:
# assayExplanation: soluble fraction after stress (log2 fold change); higher = more stays soluble; pooled small domains, quantitative proteomics
# experimentalParameters: stress: 75 degC

Observe how each entry below is paired with its result.
HMHDAKAEIIRLSALLTEYQRSYYIDGHSQVSDLEYDRLFDRLVALETSHPELREADSPTQRV ... -0.917
HMDAHYMEMKGKTGTAFTMLRPAGKIDIEGQIFDAVAEAGFIEKGEAIRVVKYENAQLIVRK ... -0.446
HMNLGDLYVIMEIAGQRDDVSARLMNREGQTFLVKTGTKLKSGDVVKEITPTYIKTDHDGEEAFLYF ... -0.78
HMQITDTEAIATTLDEIIAANPKEWERLKAGQEQLVKFFVGQVMRVTKGRANPQVVNDLLKERL ... -0.346
HMAVNQEFKNTINRIKYEYSLNQSQIADRLGVKKTYLSDMINGRVPYNETMNKKVNDVFPLPP ... -0.169

Answer with the recorded soluble fraction (log2) of HMLRIIDYNRVVKDLNGLTPEQLLEKLAESFTVEDKGTEEYRPTELHNFSMYLGGHWYSLTAKPGTYDDND only. -1.2

Answer with the recorded soluble fraction (log2) of HMRGLGDLEPVDSLGKIRIDDGHMVLAFGRHKGRHLSEVQAEDPRYIHWLLSPKGIEDVEAREKVKVYLEG only. 0.0762

Answer with the recorded soluble fraction (log2) of HMNMSVGAALRRRRNELGMTLRELADEAELTSGFLSQVENDRVSPSLKSLGRIAEVLRIPLFQLLS only. -1.72

====

soluble fraction (log2) by entry:
# assayExplanation: soluble fraction after stress (log2 fold change); higher = more stays soluble; pooled small domains, quantitative proteomics
# experimentalParameters: stress: 75 degC
Just the number, please, no unit after it.

HMGTAEDYLLPRRAEILSIIRDHEFANFDLIRRRFLAVNERTLRYDLKKLSDLGLIKKLGKTRGVYYRAAK ... -1.84
HMETPDLTQLNPILDEYRGQKGAVIPVLQKAQKIYGFLPPEVLRRIAAGMRVPLSKIYGVATFYSQFY ... 0.134
HMVEIPEFKITTFVNTDNEQIAEFENGFTDKKAEITFNNTKYVFKEKLPDQDGIRTYVYEELHE ... 0.141
HMRQDEKTLLYWIGAQVKREGKLIKTSTAQYLVEKTGTDMENLEKELEKLFAYTLDEKEITPAAIDEI ... -1.77
HMKMQPVISQGVLYINNVTDVRTIEVFDISGRIVADAAASTTVNIAHLNEGPYIVKVTTVNGIESIKILNK ... -2.5
HMKKHAPSLMRQIRRELKEGKSPESLLSKAKLISDSYYRSLSFYLLIPYLSPNSKQFQEAISLAGKDID ... 0.175
HMGLAWTVEGRTVLLGRTADRIELYNVGGGLVALARESDRISAPGVGLYVVRVVSDGQSVSQKIWIT ... -2.39
HMEIDFDKINSIFNDANKLYEEGDYFEANNLYKNIVSSNIISKDLYYNLGLSYAKIGSNGYAILWYERALN ... -0.0259
HMNNDFVERLRKLFGHASMAEIARRIDVPHATIRNYFQGRLPAPEVLIKLARETGVSLNWLLTGEGKMFA ... -1.19
HMNTNDFTIGTRVRTTKKGNGSSDGTSNTARSGIEGTITRIIPEAKYPYLVSTTVPMGWYKKDALEK ... 0.00349

Answer with the recorded soluble fraction (log2) of HMGSSLLSPKEREVLQLLAGNLSNKQIALAMGVSDETIKWHLRNLFGKLNAGGRKHLIDRARMLGLLAAA only. -1.61

Answer with the recorded soluble fraction (log2) of HMAAHWANFLEALRAGRARRVLVARGVEGWLLKELERLGAPYTLVPRIELDTLLRTTHHQGIAAEVE only. -1.46

Answer with the recorded soluble fraction (log2) of HMGSGLAAAEKIRKAHPEIKIVVATSLIDTQVLARAKAVGADSLWYKDGDEGTLMQVVRRTMAGDHIFP only. -0.038

Answer with the recorded soluble fraction (log2) of HMGAGEQMLPKVMFAEGDRVVHKVFGEGTVVTVDRPAQTYDIQFDKLRGTRRIMFRAELEGI only. -0.693

Answer with the recorded soluble fraction (log2) of HMIVLPGEELEVHIVQEGKEDGQGVAYLDDGTMVVVEGGRPYVDSFAYVAVTRVLQTGAGRIIFAHPTR only. -2.54

Answer with the recorded soluble fraction (log2) of HMFIVTDQMQRVLDYITEKEKATNNDLEELLGVKSTRIYTITRKLIQHNLIIPVGKGKNKYYIL only. -0.902

Answer with the recorded soluble fraction (log2) of HMKTFSTRLIALREAIGVNQSELARRVGVTPQAVQKWESGANGPRGKRLEKLASELRSTVGYLVSGEGDG only. -0.434
